test.target: human A2AAR (Homo sapiens)
Construct: expressed in transfected cells; host or cells: HEK293 cells stably expressing the human A2AAR
Sequence (P29274 whole entry): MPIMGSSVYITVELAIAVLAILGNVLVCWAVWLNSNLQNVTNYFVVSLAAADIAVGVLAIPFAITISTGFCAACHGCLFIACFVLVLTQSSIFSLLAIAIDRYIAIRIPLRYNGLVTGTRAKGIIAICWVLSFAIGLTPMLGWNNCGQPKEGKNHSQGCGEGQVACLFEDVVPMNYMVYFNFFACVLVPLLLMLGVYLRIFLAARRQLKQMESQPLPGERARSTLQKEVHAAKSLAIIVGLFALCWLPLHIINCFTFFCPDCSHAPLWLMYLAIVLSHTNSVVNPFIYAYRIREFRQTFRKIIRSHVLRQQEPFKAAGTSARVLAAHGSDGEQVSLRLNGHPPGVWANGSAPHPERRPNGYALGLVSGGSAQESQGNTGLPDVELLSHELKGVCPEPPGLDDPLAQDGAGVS
measurement.description: cAMP accumulation assay, antagonism of CGS21680 with Schild analysis
Type: cell-based
recorded.conditions: Schild analysis, CGS21680-induced cAMP; linear part of plot only for XAC630, MRS7396, HMA
experimental.endpoint: Functional Antagonism Slope (Schild)
Just the number, please.

The cases that follow already have their Functional Antagonism Slope (Schild) on record.
compound	experimental.endpoint	observed.measurement
CCCn1c(=O)c2[nH]c(-c3ccc(OCC(=O)NCCNC(=O)CCCCCNC(=O)COc4ccc(/C=C/C5=[N+]6C(=Cc7ccc(-c8cccs8)n7[B-]6(F)F)C=C5)cc4)cc3)nc2n(CCC)c1=O [XAC630, reference compound]	Functional Antagonism Slope (Schild)	0.47
Nc1nc2c(cnn2CCCc2ccc(OCC(=O)NCCCCNC(=O)CCCCCNC(=O)COc3ccc(/C=C/C4=[N+]5C(=Cc6ccc(-c7cccs7)n6[B-]5(F)F)C=C4)cc3)cc2)c2nc(-c3ccco3)nn12	Functional Antagonism Slope (Schild)	0.42
CCCn1c(=O)c2[nH]c(-c3ccc(OCC(=O)NCCNC(=O)CCNC(=O)CCCCNC(=O)CCCCCN)cc3)nc2n(CCC)c1=O	Functional Antagonism Slope (Schild)	0.68

Input line: Consider the compound N=c1ccc2c(-c3ccc(C(=O)NCCCCNC(=O)COc4ccc(CCCn5ncc6c5nc(N)n5nc(-c7ccco7)nc65)cc4)cc3C(=O)O)c3ccc(N)c(S(=O)(=O)O)c3oc-2c1S(=O)(=O)O and give its measured Functional Antagonism Slope (Schild).
Output line: 0.68

Input line: Reported Functional Antagonism Slope (Schild), compound CCCn1c(=O)c2[nH]c(-c3ccc(OCC(=O)NCCNC(=O)CCNC(=O)CCCCNC(=O)CCCCCNC(=O)c4ccc(-c5c6ccc(=N)c(S(=O)(=O)O)c-6oc6c(S(=O)(=O)O)c(N)ccc56)c(C(=O)O)c4)cc3)nc2n(CCC)c1=O : ____
Output line: 1.03

Input line: Any idea what Functional Antagonism Slope (Schild) was measured for NC(N)=NC(=O)c1nc(Cl)c(N2CCCCCC2)nc1N [HMA, 5-(N,N-hexamethylene)amiloride, reference compound] ?
Output line: 0.59

Input line: Entry Nc1nc2c(cnn2CCCc2ccc(OCc3ccc(S(=O)(=O)O)cc3)cc2)c2nc(-c3ccco3)nn12 has what Functional Antagonism Slope (Schild)?
Output line: 0.88

---

test.target: human A2AAR (Homo sapiens)
Construct: expressed in transfected cells; host or cells: HEK293 cells stably expressing the human A2AAR
measurement.description: Fluorescent ligand MRS7416 binding to intact HEK293 cells (flow cytometry)
recorded.conditions: displacement of 15 nM fluorescent MRS7416, intact cells, 37 °C, 60 min
experimental.endpoint: Ki (nM)
The reply should be a number in nM, with the unit left off.

Sample records with Ki:
compound	test.target	observed.measurement
CCCn1c(=O)c2[nH]c(-c3ccc(OCC(=O)NCCNC(=O)CCCCCNC(=O)COc4ccc(/C=C/C5=[N+]6C(=Cc7ccc(-c8cccs8)n7[B-]6(F)F)C=C5)cc4)cc3)nc2n(CCC)c1=O [XAC630, reference compound]	human A2AAR (Homo sapiens)	692
Nc1nc2c(cnn2CCCc2ccc(OCc3ccc(S(=O)(=O)O)cc3)cc2)c2nc(-c3ccco3)nn12 [MRS7352]	human A2AAR (Homo sapiens)	5.28

We now examine a further compound.
Input line: Item NC(N)=NC(=O)c1nc(Cl)c(N2CCCCCC2)nc1N [HMA, 5-(N,N-hexamethylene)amiloride, reference compound] has what recorded Ki?
Output line: 18500
